Catalogue of Human M4 Emin values
target: human mAChR M4 (Homo sapiens, UniProt P08173); construct: expressed in transfected cells; host or cells: CHO-K1 (ATCC), stably co-expressing chimeric G protein Gqi5; experiment: mAChR M4 cell-based functional assay (calcium mobilization, EC80 acetylcholine), human M4; details: Table 10
Sequence (P08173 whole entry): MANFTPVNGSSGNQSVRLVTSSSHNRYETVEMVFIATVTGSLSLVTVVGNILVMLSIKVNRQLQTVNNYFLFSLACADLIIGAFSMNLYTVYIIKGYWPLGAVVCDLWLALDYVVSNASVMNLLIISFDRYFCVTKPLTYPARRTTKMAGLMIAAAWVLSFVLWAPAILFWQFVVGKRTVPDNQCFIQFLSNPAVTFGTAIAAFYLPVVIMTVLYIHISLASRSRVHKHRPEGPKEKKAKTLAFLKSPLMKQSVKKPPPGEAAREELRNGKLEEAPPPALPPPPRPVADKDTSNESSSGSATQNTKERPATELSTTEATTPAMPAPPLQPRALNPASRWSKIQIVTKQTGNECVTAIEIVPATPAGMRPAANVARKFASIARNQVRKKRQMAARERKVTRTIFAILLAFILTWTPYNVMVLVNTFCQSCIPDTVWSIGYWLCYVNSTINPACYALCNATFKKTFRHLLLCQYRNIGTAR
recordedEndpoint: Human M4 Emin (%)

compound="FC1(F)CCCN(c2ccc(N[C@H]3C[C@@H]4CN(CC5CCOCC5)C[C@@H]4C3)nn2)C1 [Compound 196]" recordedendpoint="Human M4 Emin" endpointunit=% measuredresult=4
compound="Fc1ccc(Cl)c(-c2ccc(N[C@H]3C[C@@H]4CN(Cc5cn6ccccc6n5)C[C@@H]4C3)nn2)c1 [Compound 165]" recordedendpoint="Human M4 Emin" endpointunit=% measuredresult=3
compound="CC(=O)Nc1ccc(-c2ccc(N[C@H]3C[C@@H]4CN(CC5CCOCC5)C[C@@H]4C3)nn2)cc1 [Compound 180]" recordedendpoint="Human M4 Emin" endpointunit=% measuredresult=8
compound="COc1cccc(-c2ccc(N[C@H]3C[C@@H]4CN(CC5CCOCC5)C[C@@H]4C3)nn2)c1 [Compound 200]" recordedendpoint="Human M4 Emin" endpointunit=% measuredresult=6
